# Vd annotations
assayDetails: Volume of distribution at steady state in BALB/c mouse at 5 mg/kg, iv
Format: ADME, organism-based
conditionParameters: in vivo, read-out: Vdss

# smilesNotation, Vd / L/kg
data = [
    ("Cc1cc(-c2ccnc3[nH]ncc23)cnc1OCC12CCC(O)(CC1)CC2", 3.1),
    ("Cc1cc(-c2cnc(OCC34CCC(N)(CC3)CC4)c(C)c2)c2cnn(C)c2n1", 13.8),
    ("Cc1cc(-c2ccnc3[nH]ncc23)cnc1OCC12CCC(N)(CC1)CC2", 5.1),
    ("Cc1cc(-c2nn(C)c3nc(N)ncc23)cnc1OCC12CCC(N)(CC1)CC2", 15),
    ("Cn1nc(-c2ccc(OCCCC3CCNCC3)c(F)c2)c2cnc(N)nc21", 29),
    ("Cn1nc(-c2ccc(OCC34CCC(N)(CC3)CC4)c(F)c2)c2cnc(N)nc21", 15),
]

###

tgt: Toll-like receptor 7 (Mus musculus)
Sequence (P58681 whole entry): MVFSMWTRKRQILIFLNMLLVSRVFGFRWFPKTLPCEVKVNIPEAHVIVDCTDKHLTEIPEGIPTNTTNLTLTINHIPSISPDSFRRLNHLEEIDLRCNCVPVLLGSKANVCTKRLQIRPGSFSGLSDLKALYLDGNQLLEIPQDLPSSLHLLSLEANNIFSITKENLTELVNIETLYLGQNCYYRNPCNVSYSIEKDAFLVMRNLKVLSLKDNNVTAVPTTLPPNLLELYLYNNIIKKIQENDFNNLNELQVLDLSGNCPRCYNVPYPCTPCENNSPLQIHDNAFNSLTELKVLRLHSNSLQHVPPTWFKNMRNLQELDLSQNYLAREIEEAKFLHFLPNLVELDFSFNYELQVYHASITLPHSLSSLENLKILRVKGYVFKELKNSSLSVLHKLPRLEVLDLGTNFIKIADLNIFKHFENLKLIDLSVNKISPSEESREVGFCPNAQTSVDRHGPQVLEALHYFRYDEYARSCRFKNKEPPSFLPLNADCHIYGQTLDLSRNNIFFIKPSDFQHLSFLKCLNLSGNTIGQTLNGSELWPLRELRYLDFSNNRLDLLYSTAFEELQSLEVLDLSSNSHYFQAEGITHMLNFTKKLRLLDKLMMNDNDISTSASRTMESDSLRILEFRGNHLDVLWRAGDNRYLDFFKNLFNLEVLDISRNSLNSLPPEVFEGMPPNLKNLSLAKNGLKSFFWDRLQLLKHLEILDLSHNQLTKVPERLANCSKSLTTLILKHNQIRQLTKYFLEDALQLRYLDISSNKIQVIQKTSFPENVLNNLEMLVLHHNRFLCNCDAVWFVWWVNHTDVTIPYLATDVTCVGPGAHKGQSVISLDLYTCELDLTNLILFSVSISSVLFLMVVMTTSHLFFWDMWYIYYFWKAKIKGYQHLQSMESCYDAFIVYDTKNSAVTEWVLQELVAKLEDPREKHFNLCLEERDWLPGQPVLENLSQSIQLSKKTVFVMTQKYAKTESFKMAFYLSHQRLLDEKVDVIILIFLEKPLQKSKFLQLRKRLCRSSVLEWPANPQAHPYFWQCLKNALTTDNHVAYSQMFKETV
assayDetails: Antagonist activity at TLR7 in mouse P4H1 cells assessed as inhibition of imiquimod-induced IL6 production
Type: cell-based
pIC50: −log10 of the molar value.
endpointName: pIC50

# smilesNotation, value
records = [
    ("CN1CCN(CCCOc2ccc(-c3nn(C)c4nc(N)ncc34)cc2F)CC1", 6.77),
]

###

tgt: UniProt:Q9NR96
Sequence (Q9NR96 whole entry): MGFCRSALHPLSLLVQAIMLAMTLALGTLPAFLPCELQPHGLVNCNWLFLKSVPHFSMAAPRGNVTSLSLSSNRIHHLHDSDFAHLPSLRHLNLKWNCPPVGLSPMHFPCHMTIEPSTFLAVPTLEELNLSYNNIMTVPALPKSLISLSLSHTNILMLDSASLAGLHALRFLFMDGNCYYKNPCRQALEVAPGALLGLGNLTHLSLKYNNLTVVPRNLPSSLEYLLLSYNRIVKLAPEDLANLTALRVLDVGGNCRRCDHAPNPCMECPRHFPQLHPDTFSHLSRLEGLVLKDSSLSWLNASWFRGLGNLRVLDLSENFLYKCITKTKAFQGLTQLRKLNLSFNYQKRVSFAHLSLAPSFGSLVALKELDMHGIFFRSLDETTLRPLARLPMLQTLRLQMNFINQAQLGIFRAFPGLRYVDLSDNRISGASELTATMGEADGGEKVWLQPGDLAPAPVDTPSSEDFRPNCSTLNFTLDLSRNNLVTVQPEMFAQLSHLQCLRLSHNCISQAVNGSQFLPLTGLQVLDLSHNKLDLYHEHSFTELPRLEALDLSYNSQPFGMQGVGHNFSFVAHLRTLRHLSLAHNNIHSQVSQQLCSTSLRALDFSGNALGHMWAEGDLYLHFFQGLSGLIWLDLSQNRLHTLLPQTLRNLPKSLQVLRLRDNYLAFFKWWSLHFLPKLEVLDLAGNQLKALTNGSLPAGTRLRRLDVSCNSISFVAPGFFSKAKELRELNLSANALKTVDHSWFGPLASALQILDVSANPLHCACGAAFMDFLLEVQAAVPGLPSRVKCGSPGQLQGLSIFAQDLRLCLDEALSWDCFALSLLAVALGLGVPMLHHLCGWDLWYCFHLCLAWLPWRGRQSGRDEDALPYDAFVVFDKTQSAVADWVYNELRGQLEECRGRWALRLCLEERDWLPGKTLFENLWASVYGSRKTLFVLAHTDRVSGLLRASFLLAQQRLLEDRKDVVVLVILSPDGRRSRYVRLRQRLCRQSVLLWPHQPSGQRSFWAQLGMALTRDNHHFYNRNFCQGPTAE
assayDetails: Antagonist activity at TLR9 in human PBMC assessed as inhibition of ODN2216-induced IFNalpha production
pIC50: −log10 of the molar value.
endpointName: pIC50

# compound, endpointName, readoutRelation, value
rows = [
    ("Cn1nc(-c2ccc(OC[C@H]3CC[C@H](N)CC3)c(F)c2)c2cnc(N)nc21", "pIC50", "=", 5.85),
    ("Cc1cc(-c2nn(C)c3nc(N)ncc23)cnc1OCC12CCC(N)(CC1)CC2", "pIC50", "=", 5.48),
    ("Cn1nc(-c2ccc(OCC3C[C@H]4CC[C@@H](C3)N4)c(F)c2)c2cnc(N)nc21 (stereo not given in full)", "pIC50", "=", 5.92),
    ("Cn1nc(-c2ccc(OCC3CCNCC3)c(F)c2)c2cnc(N)nc21", "pIC50", "=", 5.47),
    ("Cn1nc(-c2ccc(OCC34CCC(N)(CC3)CC4)c(F)c2)c2cnc(N)nc21", "pIC50", "=", 5.57),
    ("Cc1cc(-c2ccnc3[nH]ncc23)cnc1OCC12CCC(N)(CC1)CC2", "pIC50", "=", 6.00),
    ("Cn1nc(-c2ccc(OCC34CCC(O)(CC3)CC4)c(F)c2)c2cnc(N)nc21", "pIC50", "=", 5.28),
    ("Cn1ncc2c(-c3ccc(OCC45CCC(N)(CC4)CC5)c(F)c3)nc(N)nc21", "pIC50", "=", 5.43),
    ("Cn1nc(-c2ccc(OC[C@H]3CC[C@@H](N)CC3)c(F)c2)c2cnc(N)nc21", "pIC50", "=", 5.66),
    ("Cc1cc(-c2ccnc3[nH]ncc23)cnc1OCC12CCC(O)(CC1)CC2", "pIC50", "<", 5.30),
]

###

Recorded measurements of IC50, one per entry
tgt: UniProt Q9EQU3
Sequence (Q9EQU3 whole entry): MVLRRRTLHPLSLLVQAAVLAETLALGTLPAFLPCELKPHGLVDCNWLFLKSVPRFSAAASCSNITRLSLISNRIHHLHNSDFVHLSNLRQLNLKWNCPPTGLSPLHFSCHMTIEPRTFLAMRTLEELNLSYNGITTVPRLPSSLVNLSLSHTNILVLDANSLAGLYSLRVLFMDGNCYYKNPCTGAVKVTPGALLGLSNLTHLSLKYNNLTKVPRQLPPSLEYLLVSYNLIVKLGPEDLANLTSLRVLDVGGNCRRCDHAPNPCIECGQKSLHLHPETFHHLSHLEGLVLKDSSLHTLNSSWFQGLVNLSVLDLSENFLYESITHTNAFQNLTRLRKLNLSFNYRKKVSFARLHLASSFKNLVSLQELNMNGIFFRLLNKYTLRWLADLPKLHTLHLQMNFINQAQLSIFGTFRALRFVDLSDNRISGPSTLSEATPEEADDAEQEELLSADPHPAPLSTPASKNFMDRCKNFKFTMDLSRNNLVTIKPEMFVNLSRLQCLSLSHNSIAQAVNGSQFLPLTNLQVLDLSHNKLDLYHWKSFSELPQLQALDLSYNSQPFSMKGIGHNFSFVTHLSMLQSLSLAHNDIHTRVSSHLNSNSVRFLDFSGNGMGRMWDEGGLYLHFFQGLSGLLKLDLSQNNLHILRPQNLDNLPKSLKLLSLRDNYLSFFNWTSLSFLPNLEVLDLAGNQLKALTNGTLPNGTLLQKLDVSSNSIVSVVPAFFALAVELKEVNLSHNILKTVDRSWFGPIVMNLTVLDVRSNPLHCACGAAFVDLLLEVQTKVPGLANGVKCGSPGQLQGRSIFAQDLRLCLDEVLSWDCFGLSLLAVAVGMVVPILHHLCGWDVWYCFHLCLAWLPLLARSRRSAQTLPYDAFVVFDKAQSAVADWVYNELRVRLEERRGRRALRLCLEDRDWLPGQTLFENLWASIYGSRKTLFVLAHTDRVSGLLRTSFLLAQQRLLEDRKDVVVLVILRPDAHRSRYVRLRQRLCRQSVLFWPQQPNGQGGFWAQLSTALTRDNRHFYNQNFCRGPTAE
assayDetails: Antagonist activity at TLR9 in mouse splenocytes assessed as inhibition of CpG1585-induced IL6 production

# smilesNotation, readoutRelation, IC50, µM
rows = [
    ("Cn1nc(-c2ccc(OCC34CCC(N)(CC3)CC4)c(F)c2)c2cnc(N)nc21", "=", 0.84),
    ("Cn1ncc2c(-c3ccc(OCC45CCC(N)(CC4)CC5)c(F)c3)nc(N)nc21", "=", 0.8),
    ("CN1CCN(CCCOc2ccc(-c3nn(C)c4nc(N)ncc34)cc2F)CC1", "=", 2),
    ("Cn1nc(-c2ccc(OC[C@H]3CC[C@H](N)CC3)c(F)c2)c2cnc(N)nc21", "=", 1.9),
    ("Cc1cc(-c2ccnc3[nH]ncc23)cnc1OCC12CCC(O)(CC1)CC2", ">", 10),
]

###

assayDetails: Drug uptake in 129Sv mouse at 5 mg/kg, po measured after 2 hrs
Format: ADME, organism-based
conditionParameters: in vivo, read-out: Drug uptake
endpointName: concentration at 2 h (nM)

# smilesNotation, value
records = [
    ("Cl.Cn1nc(-c2ccc(OCC34CCC(N)(CC3)CC4)c(F)c2)c2cnc(N)nc21", 300),
]

###

tgt: Toll-like receptor 7 (Mus musculus)
assayDetails: Antagonist activity at TLR7 in mouse splenocytes assessed as inhibition of ssRNA40-induced IL6 production
Assay type: cell-based, Splenocyte
pIC50: −log10 of the molar value.
// reported pIC50 per item

# compound, pIC50
records = [
    ("Cc1cc(-c2ccnc3[nH]ncc23)cnc1OCC12CCC(N)(CC1)CC2", 8.40),
    ("Cn1nc(-c2ccc(OCCCC3CCNCC3)c(F)c2)c2cnc(N)nc21", 7.01),
    ("Cn1ncc2c(-c3ccc(OCC45CCC(N)(CC4)CC5)c(F)c3)nc(N)nc21", 6.52),
    ("Cn1nc(-c2ccc(OC[C@H]3CC[C@H](N)CC3)c(F)c2)c2cnc(N)nc21", 6.96),
    ("Cn1nc(-c2ccc(OC[C@H]3CC[C@@H](N)CC3)c(F)c2)c2cnc(N)nc21", 6.82),
    ("Cn1nc(-c2ccc(OCC3CCNCC3)c(F)c2)c2cnc(N)nc21", 6.66),
    ("Cc1cc(-c2ccc(OCC34CCC(N)(CC3)CC4)c(F)c2)c2cnc(N)nn12", 7.03),
    ("CN1CCN(CCCOc2ccc(-c3nn(C)c4nc(N)ncc34)cc2F)CC1", 5.70),
    ("Cn1nc(-c2ccc(OCC3C[C@H]4CC[C@@H](C3)N4)c(F)c2)c2cnc(N)nc21 (some centres not stated)", 6.92),
    ("Cc1cc(-c2ccnc3[nH]ncc23)cnc1OCC12CCC(O)(CC1)CC2", 7.26),
    ("Cn1nc(-c2ccc(OCC34CCC(O)(CC3)CC4)c(F)c2)c2cnc(N)nc21", 5.92),
    ("Cn1nc(-c2ccc(OCC34CCC(N)(CC3)CC4)c(F)c2)c2cnc(N)nc21", 7.42),
]

###

assayDetails: Terminal half life in BALB/c mouse at 5 mg/kg, iv
Assay type: ADME, organism-based
conditionParameters: in vivo, read-out: beta t1/2 (converted)
half-life values by entry
endpointName: half-life

# smilesNotation, value
measured = [
    ("Cc1cc(-c2nn(C)c3nc(N)ncc23)cnc1OCC12CCC(N)(CC1)CC2", "246 min"),
    ("Cn1nc(-c2ccc(OCCCC3CCNCC3)c(F)c2)c2cnc(N)nc21", "354 min"),
    ("Cn1nc(-c2ccc(OCC34CCC(N)(CC3)CC4)c(F)c2)c2cnc(N)nc21", "246 min"),
    ("Cc1cc(-c2cnc(OCC34CCC(N)(CC3)CC4)c(C)c2)c2cnn(C)c2n1", "294 min"),
    ("Cc1cc(-c2ccnc3[nH]ncc23)cnc1OCC12CCC(N)(CC1)CC2", "240 min"),
    ("Cc1cc(-c2ccnc3[nH]ncc23)cnc1OCC12CCC(O)(CC1)CC2", "282 min"),
]
